B1: TPR t1 (parent)
chain: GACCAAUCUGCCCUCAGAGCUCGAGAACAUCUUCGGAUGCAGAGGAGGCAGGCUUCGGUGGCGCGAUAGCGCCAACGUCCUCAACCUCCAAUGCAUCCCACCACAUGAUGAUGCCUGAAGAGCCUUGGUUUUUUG

variants of: B1; assay: polymerase ribozyme fitness, log enrichment relative to wild type (log ratio); higher = more active; in vitro selection for triplet polymerase activity
PROPERTY MEASURED: polymerase ribozyme fitness (log ratio)
Just the number, please, no unit attached.

input: # polymerase ribozyme fitness (log ratio) lookup, item G23A G63C
output: -3.02

input: Then A6U G63U ?
output: -1.06

input: Then G44U U96A U116G ?
output: -3.66

input: Then C3A A29U G63A C82A A91C C114U G128U ?
output: -3.24

input: Then C13U G44A A50C G63A C85A ?
output: -3.07

input: Then C62U U106A G120U C124G ?
output: 1.54

input: Then G10A A37U G47C U112C U131A ?
output: -0.391

input: Then C53G C115U ?
output: -1.56

input: Then C53G G60U C104A C114U ?
output: -5.11

input: Then G47A G60A C124G U133A ?
output: 1.3

input: Then C4G A37G C53U A111C ?
output: -1.68

input: Then G69A C102U ?
output: -4.72

input: Then A29U C98A U109G ?
output: -4.46

input: Then C31G A50G G60A C79A C124A ?
output: -7.23

input: Then G60U C82G ?
output: -1.12

input: Then C88U C123A ?
output: 1.43

input: Then A41C C101A G120C ?
output: -1.45

input: Then G48A C70U ?
output: -1.3

input: Then A95C U109A U112C ?
output: -4.49

input: Then C8A C22G G113U C114G ?
output: -3.52

input: Then C70A C86G C102A ?
output: -4.88

input: Then U21A A66U U112G ?
output: -0.949

input: Then C20U C76A ?
output: -2.08

input: Then G63C C114A ?
output: -2.44

input: Then G77A U116A ?
output: -4.07

input: Then C4U U7C A43U C70U C85A U92G G120C ?
output: -5.06

input: Then G44A A50G C73U ?
output: -0.0837

input: Then C4G U54A G60C ?
output: -1.88

input: Then U7A G113U ?
output: -2.15

input: Then A5G G117C ?
output: -3.71

input: Then C62U A91C ?
output: -1.43

input: Then C115U G120A ?
output: -2.24

input: Then C8G A43C G45A A50G G113U G120C ?
output: -2.24

input: Then A5U U14C A50U C72A C124A U131G ?
output: -1.27

input: Then G39A G45C ?
output: -2.32

input: Then C28A G60A G110U G122A ?
output: -0.649

input: Then C40A G48U ?
output: -1.61

input: Then C56A G58C ?
output: -0.496

input: Then A66G U96C A118U ?
output: -1.1

input: Then C72A U87G A111G ?
output: 0.26

input: Then A6G C80U C115G ?
output: -1.33

input: Then C28U G52U ?
output: -2.88

Just for reference, the RNAGym collection of RNA variant scans (doi:10.1073/pnas.2313332121) is where these values come from.
